testDescription: qHTS Validation assay for Inhibitors of Plasmodium falciparum Dd2 growth in vitro; note: nearly all actives have a fitted effect of over 70% in size
measurementSetup: P. falciparum Dd2 in RBCs, SYBR Green growth, 72 h; series mostly up to 28.7 µM
In all, about 4,100 compounds went through this assay and about 1,600 (39%) were called active. Roughly 25% stayed inconclusive and do not appear here. Calls come from the whole dose curve; as a rule, active = well fitted inhibition curve with a large enough effect; inconclusive = small, poorly fitted or top-dose-only effect; inactive = no such curve, though single readings can be large or run the other way. This is one part of the list.
Tick one outcome: yes (1) for active, no (0) for inactive

- molecule: "CCOC(=O)C1=C(C)NC(=S)N(C(C)=O)C1c1ccc(Cl)cc1 (stereo not given)"
  groupLabel: "no (0)"
- molecule: "COc1ccc(-c2ccc3nnc(CNC(=O)Cc4cccc(F)c4)n3n2)cc1"
  groupLabel: "no (0)"
- molecule: "COc1cccc(NC(=O)Nc2cccc(C(=O)O)c2)c1"
  groupLabel: "no (0)"
- molecule: "COc1ccc2nc(C[C@@H]3C[C@@H](C(C)C)[C@H](CNCc4ccccc4OC)C=C3C)[nH]c2c1"
  groupLabel: "yes (1)"

Q: Record request — test call for COc1cc(Br)c(C2CC(=O)Nc3cc4c(cc32)OCCO4)cc1OC (stereo not given)
A: yes (1)

Q: Next entry: Fc1ccc(N2CCCN(CC3[C@H]4CNC[C@@H]34)CC2)cc1 (stereo not given in full)
A: yes (1)

Q: Next entry: COc1cccc(C(=O)N2CCCC(Cc3noc(-c4ccncc4)n3)C2)c1 (stereo not given)
A: no (0)

Q: Next entry: COc1cc(C2CC(=O)Nc3cc4c(cc32)OCCO4)cc(Br)c1OC (stereo not given)
A: yes (1)

Q: Next entry: COc1ccc2nc(C[C@@H]3C[C@@H](C(C)C)[C@H](CNCc4ccccn4)C=C3C)[nH]c2c1
A: yes (1)

Q: Next entry: O=C(NCc1ccncc1)[C@@H]1C[C@@H](c2ccc(F)cc2)N(Cc2ccccc2)C1
A: no (0)

Q: Next entry: N#Cc1cccc(C(=O)N2CCCN(Cc3ccncc3)C(c3ccccc3)CC(=O)NCC2)c1 (stereo not given)
A: yes (1)

Q: Next entry: O=C(CN(C(=O)c1cccc([N+](=O)[O-])c1)C1CCCCC1)Nc1ccc(Cl)c([N+](=O)[O-])c1
A: yes (1)

Q: Next entry: O=C(c1ccncc1)N1CCC(Cc2nc(-c3ccccc3)n[nH]2)CC1
A: no (0)

Q: Next entry: CCc1ccc(Oc2c(C(F)(F)F)oc3c(CN4CCN(C)CC4)c(O)ccc3c2=O)cc1
A: yes (1)

Q: Next entry: CNC(=O)N1CCC(Cc2nncn2C(C)C)C1 (stereo not given)
A: no (0)

* * *

testDescription: qHTS Validation assay for Inhibitors of Plasmodium falciparum Dd2 growth in vitro; note: nearly all actives have a fitted effect of over 70% in size
measurementSetup: P. falciparum Dd2 in RBCs, SYBR Green growth, 72 h; series mostly up to 28.7 µM
Description: Malaria, a parasitic disease spread to humans through the bite of a Plasmodium infected Anopheles mosquito, continues to be a global health burden affecting millions of people, with an estimated 228 million cases and 405,000 deaths in 2018. Concerns about safety and limitations of current antimalarial treatments strongly emphasize the need to develop new therapeutic options. […]
Out of some 4,100 compounds screened, about 1,600 (39%) were called active. Another 25% or so got no clear call; they are omitted. Calls come from the whole dose curve; as a rule, active = well fitted inhibition curve with a large enough effect; inconclusive = small, poorly fitted or top-dose-only effect; inactive = no such curve, though single readings can be large or run the other way. The list shows a part of the results.
Tick one outcome: 1 = active, -1 = inactive

The following molecules have reported results that may help.
- molecule: "CCOC(=O)c1cccc(NC(=O)N2CC[C@@H](CC(=O)N[C@@H](CO)CC(C)C)[C@@H](CC)C2)c1"
  groupLabel: -1
- molecule: "CC1=C[C@@H](CN2CCCC2)[C@H](C(C)C)C[C@H]1Cc1nnc(-c2ccc([N+](=O)[O-])cc2)o1"
  groupLabel: 1
- molecule: "CCOC(=O)c1c(C)n(-c2ccc(F)cc2)c2ccc(O)cc12"
  groupLabel: 1
- molecule: "Clc1ccc2c(N/N=C/c3cccc(Br)c3)ccnc2c1"
  groupLabel: 1
- molecule: "Cc1ccc(C(=O)NC2CCCN(c3cc(-c4ccccc4)[nH]n3)C2)s1 (configuration not stated)"
  groupLabel: -1
- molecule: "CC(Sc1nc2sccc2c(=O)n1-c1ccccc1)C(N)=O (configuration not stated)"
  groupLabel: -1

Q: Record request — test call for CC1CCCCN1Cc1c(O)ccc2c(=O)c(-c3nc4ccccc4s3)c(N)oc12 (configuration not stated)
A: 1

Q: Next entry: CC1=C(C(=O)Nc2ccccc2)C(c2cc(Br)ccc2F)n2ncc(C(=O)Nc3ccccc3)c2N1 (configuration not stated)
A: 1

Q: Next entry: CN(Cc1cc(-c2cccnc2)no1)C(=O)C1COc2ccccc2C1 (configuration not stated)
A: -1
